Property: ID50; scope: individual molecules
Test system: Human immunodeficiency virus type 1 reverse transcriptase (Human immunodeficiency virus 1), Q72547 [Y181I]
// note: answer is a bare numeric in nM

{"molecule": "CCCNc1nc(C(OC)c2c(F)cccc2F)c(C)c(=O)[nH]1 (configuration not stated)", "unitSymbol": "nM", "testResult": 1700}
{"molecule": "CCCN(C)c1nc([C@H](OC)c2c(Cl)cccc2Cl)c(C)c(=O)[nH]1", "unitSymbol": "nM", "testResult": 340}
{"molecule": "Cc1c(C(C)c2c(F)cccc2F)nc(NC(C)C)[nH]c1=O (configuration not stated)", "unitSymbol": "nM", "testResult": 3520}
{"molecule": "Cc1c([C@H](C)c2c(F)cccc2F)nc(SC2CCCC2)[nH]c1=O", "unitSymbol": "nM", "testResult": 150}

Okay, next one:
### Prompt Check the records and state ID50 for COC(c1nc(NC2CCCC2)[nH]c(=O)c1C)c1c(F)cccc1F (configuration not stated)
### Response 850

====

Test system: Human immunodeficiency virus 1
experimentNotes: Antiviral activity against HIV-1 IRLL98 harboring reverse transcriptase M41L, D67N, Y181C, M184V, R211K, and T215Y mutants infected in human MT4 cells assessed as inhibition of virus-induced cytopathic effect after 5 days by MTT assay
Type: functional, organism-based
experimentalParameters: Human immunodeficiency virus 1, IRLL98, MT4, 120 h
assayReadout: EC50 (nM)
// note: answer is a bare numeric in nM

{"molecule": "CCC(C)Sc1nc(C(CC)c2c(F)cccc2F)c(C)c(=O)[nH]1 (centres undefined)", "EC50 / nM": 150}
{"molecule": "O=C1Nc2ccc(Cl)cc2[C@@](C#CC2CC2)(C(F)(F)F)O1", "EC50 / nM": 630}
{"molecule": "CCC(C)Sc1nc(C(OC)c2c(F)cccc2F)c(C)c(=O)[nH]1 (centres undefined)", "EC50 / nM": 240}
{"molecule": "COC(c1nc(SC(C)C)[nH]c(=O)c1C)c1c(F)cccc1Cl (centres undefined)", "EC50 / nM": 1}
{"molecule": "COC(c1nc(NC2CCCC2)[nH]c(=O)c1C)c1c(F)cccc1F (centres undefined)", "EC50 / nM": 2}
{"molecule": "Cc1c(O)nc(SC(C)C)nc1C(C)c1c(F)cccc1F (centres undefined)", "EC50 / nM": 145}

### Prompt Check the records and state EC50 for COC(c1nc(NC(C)C)[nH]c(=O)c1C)c1c(F)cccc1F (centres undefined)
### Response 70

### Prompt Check the records and state EC50 for COC(c1nc(SC2CCCC2)[nH]c(=O)c1C)c1c(F)cccc1Cl (centres undefined)
### Response 12

### Prompt Check the records and state EC50 for `Cc1cc(C)c(Nc2ccnc(Nc3ccc(C#N)cc3)n2)c(C)c1`
### Response 6

### Prompt Check the records and state EC50 for CCCNc1nc(C(C)c2c(F)cccc2F)c(C)c(=O)[nH]1 (centres undefined)
### Response 90

### Prompt Check the records and state EC50 for CCC(C)Sc1nc(C(OC)c2c(F)cccc2Cl)c(C)c(=O)[nH]1 (centres undefined)
### Response 0.6

### Prompt Check the records and state EC50 for Cc1c(C(C)c2c(F)cccc2F)nc(SC2CCCC2)[nH]c1=O (centres undefined)
### Response 120

### Prompt Check the records and state EC50 for Cc1c(C(C)c2c(F)cccc2Cl)nc(SC(C)C)[nH]c1=O (centres undefined)
### Response 75

### Prompt Check the records and state EC50 for COC(c1nc(SC2CCCC2)[nH]c(=O)c1C)c1c(F)cccc1F (centres undefined)
### Response 840

====

subjectOfTest: Human immunodeficiency virus type 1 reverse transcriptase (Human immunodeficiency virus 1)
The class of a record is decided solely by its measured ID50; consult bottom = under 8 nM, middle = from 8 nM up to 40 nM, top = 40 nM and over

{"compound": "CCCN(C)c1nc(C(OC)c2c(F)cccc2Cl)c(C)c(=O)[nH]1 (configuration not stated)", "classification": "middle"}
{"compound": "CO[C@@H](c1nc(SC(C)C)[nH]c(=O)c1C)c1c(F)cccc1Cl", "classification": "bottom"}
{"compound": "CCCNc1nc(C(OC)c2c(Cl)cccc2Cl)c(C)c(=O)[nH]1 (configuration not stated)", "classification": "top"}
{"compound": "Cc1c(C(C)c2c(F)cccc2F)nc(SC2CCCC2)[nH]c1=O (configuration not stated)", "classification": "bottom"}

### Prompt Bin? COC(c1nc(NC(C)C)[nH]c(=O)c1C)c1c(F)cccc1Cl (configuration not stated)
### Response top

### Prompt Bin? COC(c1nc(SC2CCCC2)[nH]c(=O)c1C)c1c(F)cccc1F (configuration not stated)
### Response middle

### Prompt Bin? CCC(c1nc(SC(C)C)[nH]c(=O)c1C)c1c(F)cccc1F (configuration not stated)
### Response bottom

### Prompt Bin? CCC(C)Sc1nc(C(OC)c2c(F)cccc2Cl)c(C)c(=O)[nH]1 (configuration not stated)
### Response bottom

### Prompt Bin? CCCN(C)c1nc(C(OC)c2c(F)cccc2F)c(C)c(=O)[nH]1 (configuration not stated)
### Response middle

### Prompt Bin? CCC(C)Sc1nc(C(OC)c2c(Cl)cccc2Cl)c(C)c(=O)[nH]1 (configuration not stated)
### Response middle

### Prompt Bin? COC(c1nc(NC2CCCC2)[nH]c(=O)c1C)c1c(F)cccc1F (configuration not stated)
### Response middle

### Prompt Bin? CCC(C)Sc1nc(O)c(C)c(C(C)c2c(F)cccc2F)n1 (configuration not stated)
### Response middle

### Prompt Bin? Cc1c(C(C)c2c(F)cccc2Cl)nc(SC2CCCC2)[nH]c1=O (configuration not stated)
### Response middle

### Prompt Bin? CCCNc1nc(C(OC)c2c(F)cccc2Cl)c(C)c(=O)[nH]1 (configuration not stated)
### Response top

### Prompt Bin? CCC(c1nc(SC2CCCC2)[nH]c(=O)c1C)c1c(F)cccc1Cl (configuration not stated)
### Response bottom

### Prompt Bin? `Cc1c([C@@H](C)c2c(F)cccc2F)nc(SC2CCCC2)[nH]c1=O`
### Response top

====

subjectOfTest: Human immunodeficiency virus type 1 reverse transcriptase (Human immunodeficiency virus 1) (UniProt Q72547)
Response field label: string, one of yes (1) (ID50 strictly below 6 nM) or no (0).

Answered cases to consult:
{"molecule": "CO[C@H](c1nc(SC(C)C)[nH]c(=O)c1C)c1c(F)cccc1Cl", "classification": "no (0)"}
{"molecule": "COC(c1nc(SC2CCCC2)[nH]c(=O)c1C)c1c(Cl)cccc1Cl (stereo not drawn)", "classification": "no (0)"}
{"molecule": "COC(c1nc(NC(C)C)[nH]c(=O)c1C)c1c(Cl)cccc1Cl (stereo not drawn)", "classification": "no (0)"}
{"molecule": "CCCN(C)c1nc([C@@H](OC)c2c(Cl)cccc2Cl)c(C)c(=O)[nH]1", "classification": "no (0)"}
{"molecule": "Cc1c(C(C)c2c(F)cccc2F)nc(NC(C)C)[nH]c1=O (stereo not drawn)", "classification": "no (0)"}

Consider the record given below.
### Prompt Please indicate whether the reported ID50 of CCC(C)Sc1nc(C(CC)c2c(F)cccc2Cl)c(C)c(=O)[nH]1 (stereo not drawn) is strictly below 6 nM.
### Response yes (1)

====

System: Human immunodeficiency virus type 1 reverse transcriptase (Human immunodeficiency virus 1), Q72547 [Y181I]
assayReadout: log10 ID50 (log10 of the value in nM)
Short version: log10 scale, ID50, nM.

{"molecule": "COC(c1nc(NC2CCCC2)[nH]c(=O)c1C)c1c(Cl)cccc1Cl (stereo not given)", "testResult": 3.38}
{"molecule": "CCCNc1nc(C(OC)c2c(F)cccc2Cl)c(C)c(=O)[nH]1 (stereo not given)", "testResult": 3.45}
{"molecule": "CO[C@@H](c1nc(SC(C)C)[nH]c(=O)c1C)c1c(F)cccc1Cl", "testResult": 3.04}

### Prompt Check the records and state log10 ID50 for COC(c1nc(NC(C)C)[nH]c(=O)c1C)c1c(Cl)cccc1Cl (stereo not given)
### Response 3.89

### Prompt Check the records and state log10 ID50 for `CCCN(C)c1nc([C@@H](OC)c2c(Cl)cccc2Cl)c(C)c(=O)[nH]1`
### Response 3.94

### Prompt Check the records and state log10 ID50 for COC(c1nc(NC(C)C)[nH]c(=O)c1C)c1c(F)cccc1Cl (stereo not given)
### Response 3.51

### Prompt Check the records and state log10 ID50 for COC(c1nc(SC2CCCC2)[nH]c(=O)c1C)c1c(F)cccc1Cl (stereo not given)
### Response 3.58

### Prompt Check the records and state log10 ID50 for CCC(C)Sc1nc(C(OC)c2c(F)cccc2Cl)c(C)c(=O)[nH]1 (stereo not given)
### Response 2.81
